Listed next: entries and their corresponding protein stability index.
- System: Saccharomyces cerevisiae
- protocol_summary: protein stability index of tFT-peptide fusion in wild type (PSI (0-1 scale)); higher = more stable (slower turnover)
- condition: genetic background: wild type
measured_metric: protein stability index

INSERT INTO assay_data (macromolecule_sequence, result_value) VALUES
  ('KKHKKGHKQKIN', 0.111),
  ('CTSEGYKFRTNN', 0.507),
  ('PSLAASFWRVAG', 0.256),
  ('KKHKKLQKQKIN', 0.054),
  ('LVVYCSCVACIN', 0.0182),
  ('RLIQPCPVQFLN', 0.0722),
  ('ARWRVGLWRGNS', 0.553),
  ('CTSCGYKFRTNY', 0.611),
  ('GLYMCSVGCWFRT', 0.227),
  ('CTCCGYKFRTNN', 0.294),
  ('CLVLLPILLFFR', 0.0939),
  ('RVTRLDAIQFRI', 0.658),
  ('GLYMCSVGCWFL', 0.506),
  ('LVVYLSCVACKN', 0.034),
  ('CTSCGYKCRTNN', 0.601),
  ('RVERLDAIYFRI', 0.491),
  ('FSMDWTFRYWVN', 0.0547),
  ('GSLAASFWRVVG', 0.147),
  ('GLYMCSVGCWLR', 0.212);

---

- System: Saccharomyces cerevisiae
- protocol_summary: protein stability index of tFT-peptide fusion (C-terminal peptide) (PSI (0-1 scale)); higher = more stable (slower turnover)
- condition: genetic background: wild type; temperature: 30 C
protein stability index of 0.7 or higher: 1 (yes). Under 0.7: 0 (no).

INSERT INTO measurements (macromolecule_sequence, assay_system, assigned_class) VALUES
  ('ANTDKNNNPPGN [SNG1 C-terminal 12 aa]', 'Saccharomyces cerevisiae', '1 (yes)'),
  ('TLFDLIEKKVTA [TAL1 C-terminal 12 aa]', 'Saccharomyces cerevisiae', '0 (no)'),
  ('VESKFTEKIKSM [RPC19 C-terminal 12 aa]', 'Saccharomyces cerevisiae', '0 (no)'),
  ('ATRKALETARSA [MRPL13 C-terminal 12 aa]', 'Saccharomyces cerevisiae', '1 (yes)'),
  ('QNLLSAYRMNHK [AVO1 C-terminal 12 aa]', 'Saccharomyces cerevisiae', '0 (no)'),
  ('TATAPRLFDKLK [QCR6 C-terminal 12 aa]', 'Saccharomyces cerevisiae', '0 (no)');

---

- System: Saccharomyces cerevisiae
- protocol_summary: protein stability index of tFT-peptide fusion (C-terminal peptide) (PSI (0-1 scale)); higher = more stable (slower turnover)
- condition: genetic background: wild type; temperature: 37 C
protein stability index of 0.4 or higher: TRUE. Under 0.4: FALSE.

INSERT INTO results (macromolecule_sequence, assigned_class) VALUES
  ('LLSFYFVLAYMV', 'FALSE'),
  ('CFFVSLFFYIDC', 'FALSE'),
  ('LVLSFVMLVSGH', 'FALSE'),
  ('SLVVMGSLWLRI', 'TRUE'),
  ('TSFSSGEALGVG', 'TRUE'),
  ('RWTKMNNLIIEF', 'TRUE'),
  ('LGGVEDRWRTAT', 'TRUE'),
  ('WCGLFCRSVFVV', 'FALSE'),
  ('TDSSWEVSLMVG', 'TRUE'),
  ('GCCFVCSVFWWG', 'TRUE'),
  ('CASVCCFFAWIV', 'TRUE'),
  ('WVSFFILYCVYR', 'FALSE'),
  ('LPILFPAALRLY', 'TRUE'),
  ('CFFGFRAGLFLG', 'FALSE'),
  ('VECVCVVVVRRM', 'TRUE'),
  ('LVLLIQKFLTDK', 'TRUE'),
  ('QCSPGLPHAQGL', 'TRUE'),
  ('VVWCLLARVLLV', 'FALSE');
